// provenance: ChEMBL document CHEMBL4177709

# assay-name: Binding affinity to Mycobacterium tuberculosis CYP121A1 by UV-visible spectrophotometric titration method
# Lookup of reported Kd keyed by entry
Please state the figure in µM; there is no need to write the unit.

Observe how each entry below is paired with its result.
| compound | quantity-kind | readout-units | experimental-value |
| --- | --- | --- | --- |
| COc1cc(CN2CCN(Cc3cc(OC)cc(OC)c3)C(Cn3ccnc3)C2)cc(OC)c1 (stereo not given) | Kd | µM | 1440 |
| O=C1CN(CCCn2ccnc2)CCN1Cc1ccc(Cl)cc1 | Kd | µM | 81.3 |
| O=C(Cn1ccnc1)N1CCN(Cc2ccc(F)cc2)CC1 | Kd | µM | 1140 |
| O=C(Cn1cncn1)N1CCN(Cc2ccc(F)cc2)CC1 | Kd | µM | 960 |
| O=C1CN(CCCn2ccnc2)CCN1Cc1ccc(F)cc1 | Kd | µM | 226 |

stdin: For the compound shown here, O=C1CN(CCCn2ccnc2)CCN1Cc1ccc(Cl)cc1Cl , give the reported Kd.
stdout: 967

stdin: For the compound shown here, c1ccc(CN2CCN(Cc3ccccc3)C(Cn3cncn3)C2)cc1 (stereo not given) , give the reported Kd.
stdout: 1830

stdin: For the compound shown here, O=C(Cn1cncn1)N1CCN(Cc2ccc(Cl)cc2Cl)CC1 , give the reported Kd.
stdout: 417

stdin: For the compound shown here, COc1ccc(CN2CCN(CCCn3ccnc3)CC2=O)cc1 , give the reported Kd.
stdout: 309

stdin: For the compound shown here, COc1ccc(CN2CCN(Cc3ccc(OC)cc3)C(Cn3cncn3)C2)cc1 (stereo not given) , give the reported Kd.
stdout: 1300
